system_tested: Serine/threonine-protein kinase Nek9 (Homo sapiens, UniProt Q8TD19)
Sequence (Q8TD19 whole entry): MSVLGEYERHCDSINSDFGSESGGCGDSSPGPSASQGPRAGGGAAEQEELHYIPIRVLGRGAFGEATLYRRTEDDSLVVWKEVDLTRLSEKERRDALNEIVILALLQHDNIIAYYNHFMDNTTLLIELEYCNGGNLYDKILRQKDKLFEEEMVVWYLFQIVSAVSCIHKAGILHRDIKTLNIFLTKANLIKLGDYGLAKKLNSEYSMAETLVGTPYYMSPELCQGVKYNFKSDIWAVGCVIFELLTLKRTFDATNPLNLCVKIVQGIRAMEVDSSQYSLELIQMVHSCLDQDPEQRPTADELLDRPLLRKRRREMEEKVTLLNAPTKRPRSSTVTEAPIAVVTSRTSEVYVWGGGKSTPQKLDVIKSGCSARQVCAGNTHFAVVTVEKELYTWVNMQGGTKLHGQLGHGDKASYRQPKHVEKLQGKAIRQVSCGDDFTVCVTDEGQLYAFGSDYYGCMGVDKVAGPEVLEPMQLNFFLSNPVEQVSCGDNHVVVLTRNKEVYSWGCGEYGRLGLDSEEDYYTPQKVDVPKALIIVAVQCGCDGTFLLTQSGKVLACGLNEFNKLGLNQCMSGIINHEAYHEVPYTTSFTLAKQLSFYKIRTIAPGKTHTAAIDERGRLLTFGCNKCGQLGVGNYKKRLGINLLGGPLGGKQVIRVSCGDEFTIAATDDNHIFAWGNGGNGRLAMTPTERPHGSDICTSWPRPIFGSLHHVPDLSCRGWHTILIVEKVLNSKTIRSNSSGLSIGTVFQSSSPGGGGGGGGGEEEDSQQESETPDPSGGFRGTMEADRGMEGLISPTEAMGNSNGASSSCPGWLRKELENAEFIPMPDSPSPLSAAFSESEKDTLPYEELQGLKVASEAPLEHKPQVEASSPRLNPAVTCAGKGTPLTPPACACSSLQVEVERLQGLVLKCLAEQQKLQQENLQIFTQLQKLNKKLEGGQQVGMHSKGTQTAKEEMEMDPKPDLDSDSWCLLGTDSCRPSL
pIC50: −log10 of the molar value.
experimental_readout: pIC50

Request: Item COc1ncc(F)cc1CNc1ccc(Cc2c[nH]c3ncc(C)cc23)c(F)n1 [PLX-5622] has what recorded pIC50?
Response: < 6.00
